tested on: Fibroblast; experiment: Multiplex assay against human fibroblast; format: toxicity, cell-based; conditions: 12 h, 10 µM, compound concentration 10 uM, replicate 1
Mark -1 for Population Hoechst High Intensity Objects (%) values under 2%, and 1 for everything at or above.

N[C@@]1(C(=O)O)CO[C@H]2[C@H](C(=O)O)[C@H]21    1
O=C1COc2nccc(-c3ccccc3F)c2CN1Cc1cc(C(F)(F)F)cc(C(F)(F)F)c1    1
CCNC1(C(N)=O)CCN(c2ncnc3c2nc(-c2ccccc2Cl)n3-c2ccc(Cl)cc2)CC1    1
Cc1ccc(F)cc1C(=O)Nc1ccc(C(=O)N2Cc3cccn3Cc3ccccc32)c(Cl)c1    -1
c1cc(OCCCN2CCCCC2)ccc1CN1CCCCC1    -1

stdin: Given CSc1ccccc1N1CCN(CCCCCC(=O)NC2CCCc3ccccc32)CC1.Cl (centres undefined) , state whether its Population Hoechst High Intensity Objects (%) is at least 2%.
stdout: 1

stdin: Given C[C@H]1[C@H]2CC[C@H]3[C@@H]4CC=C5C[C@@H](N(C)C)CC[C@]5(C)[C@H]4CC[C@]23CN1C , state whether its Population Hoechst High Intensity Objects (%) is at least 2%.
stdout: 1

stdin: Given Cc1nc2ccc(Oc3ccc(F)cc3)cc2c(=O)n1C[C@H]1CCCN(C(C)C)C1.Cl , state whether its Population Hoechst High Intensity Objects (%) is at least 2%.
stdout: 1

stdin: Given Cl.Clc1ccc2nsnc2c1NC1=NCCN1 [TIZANIDINE HYDROCHLORIDE] , state whether its Population Hoechst High Intensity Objects (%) is at least 2%.
stdout: 1

stdin: Given N#Cc1c(N)nc(SCc2csc(-c3ccc(Cl)cc3)n2)c(C#N)c1-c1ccc(OCCO)cc1 , state whether its Population Hoechst High Intensity Objects (%) is at least 2%.
stdout: -1

stdin: Given CCOc1c2c(c(OCC)c3ncccc13)CN(c1ccc(CS(=O)(=O)NC(=O)Cc3ccccc3OC)cc1C)C2=O , state whether its Population Hoechst High Intensity Objects (%) is at least 2%.
stdout: -1

stdin: Given CCCC(CCC)C(=O)O , state whether its Population Hoechst High Intensity Objects (%) is at least 2%.
stdout: 1

stdin: Given O=S(=O)(c1ccccc1)c1cnc2c(N3CCNCC3)cccc2c1 [INTEPIRDINE] , state whether its Population Hoechst High Intensity Objects (%) is at least 2%.
stdout: -1

stdin: Given CC[C@H]1OC(=O)[C@H](C)[C@@H](O[C@H]2C[C@@](C)(OC)[C@@H](O)[C@H](C)O2)[C@H](C)[C@@H](O[C@@H]2O[C@H](C)C[C@H](N(C)C)[C@H]2O)[C@@]2(C)CC(C)=C(O2)[C@H](C)[C@@H](O)[C@]1(C)O , state whether its Population Hoechst High Intensity Objects (%) is at least 2%.
stdout: 1

stdin: Given CN(C)c1ccnc2sc3c(=O)n(N4CCCCCC4)cnc3c12 , state whether its Population Hoechst High Intensity Objects (%) is at least 2%.
stdout: 1

###

tested on: U2OS; test: Multiplex assay against U2OS; format: toxicity, cell-based; settings: human, 48 h, 10 µM, compound concentration 10 uM, replicate 2
Quantity Measured: Population Mitotic Cells (%)
// units = %; emit number, no label

C[C@@H]1C[C@H]2[C@@H]3CCC4=CC(=O)C=C[C@]4(C)[C@@]3(F)[C@@H](O)C[C@]2(C)[C@@]1(O)C(=O)CO    13
O=C1COc2nccc(-c3ccccc3F)c2CN1Cc1cc(C(F)(F)F)cc(C(F)(F)F)c1    14
O=C(O)c1cc2ccccc2c(Cc2c(O)c(C(=O)O)cc3ccccc23)c1O    10

Briefly, Population Mitotic Cells (%) measured for CC(=O)NCCc1c(Cc2ccccc2)[nH]c2ccccc12 : 0

Attribution: ChEMBL document CHEMBL5058577
